The reported numbers originate from IntAct's records for PubMed 19855379.

B1: Protein phosphatase 2C 56 (Arabidopsis thaliana (Mouse-ear cress)), P49597 (parent)
chain: MEEVSPAIAGPFRPFSETQMDFTGIRLGKGYCNNQYSNQDSENGDLMVSLPETSSCSVSGSHGSESRKVLISRINSPNLNMKESAAADIVVVDISAGDEINGSDITSEKKMISRTESRSLFEFKSVPLYGFTSICGRRPEMEDAVSTIPRFLQSSSGSMLDGRFDPQSAAHFFGVYDGHGGSQVANYCRERMHLALAEEIAKEKPMLCDGDTWLEKWKKALFNSFLRVDSEIESVAPETVGSTSVVAVVFPSHIFVANCGDSRAVLCRGKTALPLSVDHKPDREDEAARIEAAGGKVIQWNGARVFGVLAMSRSIGDRYLKPSIIPDPEVTAVKRVKEDDCLILASDGVWDVMTDEEACEMARKRILLWHKKNAVAGDASLLADERRKEGKDPAAMSAAEYLSKLAIQRGSKDNISVVVVDLKPRRKLKSKPLN

variants of: B1; settings: with pyl1_arath PYL1, Q8VZS8

# MUTATION ANNOTATION, effect of a mutation on the interaction
records = [
    ("I298A", "disrupting interaction"),
    ("R304A", "disrupting interaction"),
    ("E142A", "decreasing interaction"),
    ("W300A", "disrupting interaction"),
    ("Y319A", "decreasing interaction"),
]
